Listed here: items and their measured Kd.
- testedTarget: T1, INCENP N-terminal domain (1-58), His- and Avi-tagged, biotinylated (UniProt Q9NQS7 1-58, biotinylated (Avi-tag, co-expressed E. coli biotin ligase BirA))
- T1 construct: range 1-58; Expressed in E. coli BL21(DE3); also called INC-N; INCENP N-terminal domain (AA 1-58); not shown: His-tag and Avi-tag
- T1 sequence (looked up): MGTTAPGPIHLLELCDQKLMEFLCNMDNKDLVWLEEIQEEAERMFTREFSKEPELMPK
- assayText: SPR, target immobilised on NTA chip via His-tag, two-fold Fab dilutions from 100 nM, 1:1 Langmuir fit
Write the value in nM as a bare number.

// worked examples, Kd included
{"binder": "INC-N-06 (Fab, V domains shown, also called INC-N-06 Fab) VH: EVQLVESGGGLVQPGGSLRLSCAASGFNISYSSIHWVRQAPGKGLEWVASIYPYSGSTYYADSVKGRFTISADTSKNTAYLQMNSLRAEDTAVYYCARWSLYGKWYYWWYGLDYWGQGTLVTVSS VL: DIQMTQSPSSLSASVGDRVTITCRASQSVSSAVAWYQQKPGKAPKLLIYSASSLYSGVPSRFSGSRSGTDFTLTISSLQPEDFATYYCQQGSYYPITFGQGTKVEIKR", "unitsText": "nM", "Kd": 6.3}
{"binder": "INC-N-11 (Fab, V domains shown, also called INC-N-11 Fab) VH: EVQLVESGGGLVQPGGSLRLSCAASGFNVSYYSIHWVRQAPGKGLEWVASIYPSSGSTYYADSVKGRFTISADTSKNTAYLQMNSLRAEDTAVYYCARMYPSWMLYPYYMFAGMDYWGQGTLVTVSS VL: DIQMTQSPSSLSASVGDRVTITCRASQSVSSAVAWYQQKPGKAPKLLIYSASSLYSGVPSRFSGSRSGTDFTLTISSLQPEDFATYYCQQRWVYPITFGQGTKVEIKR", "unitsText": "nM", "Kd": 4.2}

Identify measured Kd associated with INC-N-38 (Fab, V domains shown, also called INC-N-38 Fab) VH: EVQLVESGGGLVQPGGSLRLSCAASGFNVYSSSIHWVRQAPGKGLEWVAYISSYSGYTYYADSVKGRFTISADTSKNTAYLQMNSLRAEDTAVYYCARTIYSSSYFYTWFIYGAAFDYWGQGTLVTVSS VL: DIQMTQSPSSLSASVGDRVTITCRASQSVSSAVAWYQQKPGKAPKLLIYSASSLYSGVPSRFSGSRSGTDFTLTISSLQPEDFATYYCQQSWMYPITFGQGTKVEIKR
1.2

Identify measured Kd associated with INC-N-13 (Fab, V domains shown, also called INC-N-13 Fab) VH: EVQLVESGGGLVQPGGSLRLSCAASGFNVSYYSIHWVRQAPGKGLEWVASIYPYSGSTYYADSVKGRFTISADTSKNTAYLQMNSLRAEDTAVYYCARYPYYVYWYYWWYYALDYWGQGTLVTVSS VL: DIQMTQSPSSLSASVGDRVTITCRASQSVSSAVAWYQQKPGKAPKLLIYSASSLYSGVPSRFSGSRSGTDFTLTISSLQPEDFATYYCQQSWSYPITFGQGTKVEIKR
20

Identify measured Kd associated with INC-N-04 (Fab, V domains shown, also called INC-N-04 Fab) VH: EVQLVESGGGLVQPGGSLRLSCAASGFNFYSYSIHWVRQAPGKGLEWVASIYSYSGYTYYADSVKGRFTISADTSKNTAYLQMNSLRAEDTAVYYCARYPLYFQYRKYYGIDYWGQGTLVTVSS VL: DIQMTQSPSSLSASVGDRVTITCRASQSVSSAVAWYQQKPGKAPKLLIYSASSLYSGVPSRFSGSRSGTDFTLTISSLQPEDFATYYCQQGWYYPITFGQGTKVEIKR
14.8
